# TESTED ON: T1, recombinant mouse DLL4 (C-terminally His-tagged extracellular domain, R&D Systems) (mouse, UniProt Q9JI71 27-532)
# T1 construct: extracellular domain; also called rmDLL4; mDLL4
# T1 sequence (Q9JI71 27-532): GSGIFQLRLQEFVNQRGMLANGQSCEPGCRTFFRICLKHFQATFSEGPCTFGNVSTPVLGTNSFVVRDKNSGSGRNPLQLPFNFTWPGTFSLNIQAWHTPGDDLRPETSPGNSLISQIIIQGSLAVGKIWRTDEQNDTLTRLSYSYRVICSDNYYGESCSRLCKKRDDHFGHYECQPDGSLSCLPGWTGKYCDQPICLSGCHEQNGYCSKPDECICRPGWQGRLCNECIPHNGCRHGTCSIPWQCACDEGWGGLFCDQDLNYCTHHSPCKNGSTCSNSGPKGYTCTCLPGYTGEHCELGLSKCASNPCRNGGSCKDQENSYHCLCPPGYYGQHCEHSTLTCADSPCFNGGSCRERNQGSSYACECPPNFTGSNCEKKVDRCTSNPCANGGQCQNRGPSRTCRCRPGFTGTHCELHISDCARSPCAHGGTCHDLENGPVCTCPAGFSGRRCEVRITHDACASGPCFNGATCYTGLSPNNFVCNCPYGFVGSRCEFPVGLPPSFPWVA
# EXPERIMENT NOTES: ProteOn off-rate screen, periplasmic extract, coated mouse DLL4
Parameter log10(koff): see the listing below.
QUANTITY NAME: log10(koff) (log10 of the value in s⁻¹)

BINDER	log10(koff)
DLLBII129E03 (VHH) VHH: EVQLVESGGGLVQAGGSLRLSCAASGRTFSSYAMAWFRQAPGKDREYVAAIRWSGGTAYYADSVQGRFTISRDNAKNTVYLQMNSLKPEDTAVYYCANRAPDTRLAPYLYDYWGQGTQVTVSS	-3.44
DLLBII129H07 (VHH, not shown: small tags and cut ends) VHH: EVQLVESGGGLVQAGGSLRLSCAASGRTFSSYAMAWYRQAPGKEREYVAAIRWSGGTAYYADSVQGRFTISRDNAKNTVYLQMNSLKPEDTAVYYCANRAPDTRLEPYEYDYWGQGTQVTVSS	-3.60
DLLBII129E11 (VHH, not shown: small tags and cut ends) VHH: EVQLVESGGGLVQAGGSLRLSCAASGRTFSSYAMAWYRQAPGKEREYVAAIRWSGGTAYYADSVQGRFTISRDNAKNTVYLQMNSLKPEDTAVYYCANRAPDTRLRPYLYDYWGQGTQVTVSS	-3.60
DLLBII130D06 (VHH) VHH: EVQLVESGGGLVQAGGSLRLSCSASGRTFSSYAMAWYRQAPGKEREYVAAIRWSGETAYYADSVQGRFTISRDNAKNTVYLQMNSLKPEDTAVYYCANRAPDTRLEPYLYDHWGQGTQVTVSS	-3.51
DLLBII101G08 (VHH, not shown: small tags and cut ends, parent VHH; also called 101G08 (wt); 101G8) VHH: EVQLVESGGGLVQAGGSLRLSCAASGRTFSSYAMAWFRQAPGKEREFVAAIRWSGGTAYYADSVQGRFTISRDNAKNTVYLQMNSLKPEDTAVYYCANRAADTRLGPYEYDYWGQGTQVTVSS	-2.17
DLLBII130A05 (VHH) VHH: EVQLVESGGGLVQAGGSLRLSCAASGRTFSSYAMAWYRQAPGKEREYVAAIRWSGGTAYYADSVQGRFTISRDNAKNTVYLQMNSLKPEDTAVYYCANRAPDTRLGPYLYDHWGQGTQVTVSS	-3.52
DLLBII129D08 (VHH, not shown: small tags and cut ends) VHH: EVQLVESGGGLVQAGGSLRLSCAASGRTFSSYAMAWYRQAPGKEREYVAAIRWSGGTAYYADSVQGRFTISRDNAKNTVYLQMNSLKPEDTAVYYCANRAPDTRLEPYLYDYWGQGTQVTVSS	-3.72
